Hi there, I'd appreciate the recorded Population Fragmented Nuclei (%) for every entry that follows.
# System: Fibroblast
# protocolNotes: Multiplex assay against human fibroblast
# Assay type: toxicity, cell-based
# experimentalConditions: 12 h, 1 µM, compound concentration 1 uM, replicate 2
State just the number; it will be interpreted in %.

Query: Population Fragmented Nuclei (%); subject: CC(=O)c1cc(-c2cc(C(=O)NC3CC3)ccc2C)c2ncccn12
8

Query: Population Fragmented Nuclei (%); subject: CCOc1cc(N2CCC(O)CC2)ccc1Nc1ncc2c(n1)N(C1CCCC1)CCC(=O)N2C
46

Query: Population Fragmented Nuclei (%); subject: COc1cc(N2CCC(N(C)C)CC2)ccc1Nc1ncc(Cl)c(Nc2ccccc2P(C)(C)=O)n1
52

Query: Population Fragmented Nuclei (%); subject: CN(C)CCOc1ccc(-c2nc(-c3ccncc3)c(-c3ccc4c(c3)CC/C4=N\O)[nH]2)cc1 [SB590885]
44

Query: Population Fragmented Nuclei (%); subject: CC(C)(C)c1cnc(CSc2cnc(NC(=O)C3CCNCC3)s2)o1 [BMS-387032]
58

Query: Population Fragmented Nuclei (%); subject: N#Cc1cnc(Nc2cc(NC[C@H]3CNCCO3)c(C(F)(F)F)cn2)cn1 [SRA-737]
60

Query: Population Fragmented Nuclei (%); subject: CCCn1c(=O)c2[nH]c(C34CC5CC(CC3C5)C4)nc2n(CCC)c1=O [ROLOFYLLINE]
4

Query: Population Fragmented Nuclei (%); subject: CC(C)N1CCC(C)(C)c2cc(C#Cc3ccc(C(=O)O)cc3)ccc21
16

Query: Population Fragmented Nuclei (%); subject: CNc1oc(-c2cccc3ccccc23)nc1C#N
29

Query: Population Fragmented Nuclei (%); subject: CCC(=O)O[C@]1(C(=O)SCF)[C@H](C)C[C@H]2[C@@H]3C[C@H](F)C4=CC(=O)C=C[C@]4(C)[C@@]3(F)[C@@H](O)C[C@@]21C [FLUTICASONE PROPIONATE]
4

Query: Population Fragmented Nuclei (%); subject: Nc1ccc(C(=O)Nc2cccc(-c3nc(N4CCOCC4)c4oc5ncccc5c4n3)c2)cn1
20

Query: Population Fragmented Nuclei (%); subject: Cc1nc(Cc2cccc(C(F)(F)F)c2)sc1-c1ccc(C(N)=O)nc1 [TP-024n]
0

Query: Population Fragmented Nuclei (%); subject: COc1cc2c(NC3CCN(C(C)C)CC3)nc(N3CCC(F)(F)CC3)nc2cc1OCCCN1CCCC1
20

Query: Population Fragmented Nuclei (%); subject: Cc1cc2c(cc1N1C(=O)c3cccc4c(CCCO)ccc(c34)C1=O)n(C)c(=O)n2C
6

Query: Population Fragmented Nuclei (%); subject: CC(C)Oc1ccc(C(=O)N[C@H](CNC(=O)CN(C)C)Cc2ccc(-c3cn4cccc([C@H](C)O)c4n3)cc2)cc1Cl [GSK-923295A]
49

Query: Population Fragmented Nuclei (%); subject: O=C(O)c1ccc2cc(-c3ccc(O)c(C45CC6CC(CC(C6)C4)C5)c3)ccc2c1 [O-DEMETHYLATED ADAPALENE]
8

Query: Population Fragmented Nuclei (%); subject: CNC(=O)c1nn(C)c2c1C(C)(C)Cc1cnc(Nc3ccc(N4CCN(C)CC4)cc3)nc1-2 [MILCICLIB]
64
